# Read-out: Early growth response protein 1 (EGR1) transcription factor, EGR1 (gene 1958)
# test_protocol: LTEA_HepaRG_EGR1: Life Technologies and Expression Analysis (LTEA) Assay for Early growth response protein 1 (EGR1) transcription factor using HepaRG (AID 2283490)
# test_settings: mRNA level, 48 h; actives raise or lower the signal
Active and inactive are the calls of the source. Rule for the calls: active = hit-call score of the fitted dose curve at least 0.9, where 1 is the maximum; inactive = score below 0.9.
Your answer must be one of the following: active, inactive

compound	label
CCCCc1nc2cccnc2n1Cc1ccc(-c2ccccc2-c2nnn[nH]2)cc1	inactive
O=C(O)CN(CC(=O)O)CC(=O)O	inactive
S=c1[nH]c2ccccc2s1	inactive
CCC(C)N(C)C(=O)c1cc2ccccc2c(-c2ccccc2Cl)n1 (centres undefined)	inactive
O=C(Oc1ccccc1)c1cccc(C(=O)Oc2ccccc2)c1	inactive
CCCCCCCCCCCCCCCCO	inactive
CC(C)c1cccc(C(C)C)c1	inactive
O=C(O)c1[nH]n(-c2ccc(S(=O)(=O)O)cc2)c(=O)c1N=Nc1ccc(S(=O)(=O)O)cc1	inactive

In: For O=C1CCCCC1 , which call appears in the assay record?
Out: inactive

In: Also, NCCOCCOCCN please.
Out: inactive

In: Thanks! And Cc1ccc(C(C)(C)C)c(O)c1 ?
Out: inactive

In: What about this compound? CSc1ccc(Oc2ccc(S(N)(=O)=O)cc2CN(C)C)cc1C
Out: inactive

In: Similarly, COC(=O)CCCC(=O)OC ?
Out: inactive
